assay: self-splicing fitness, log relative to wild type (ln ratio); higher = more splicing; Tetrahymena group I intron in knt gene, E. coli kanamycin selection, DiMSum; sequences stand for … in CUCUCU…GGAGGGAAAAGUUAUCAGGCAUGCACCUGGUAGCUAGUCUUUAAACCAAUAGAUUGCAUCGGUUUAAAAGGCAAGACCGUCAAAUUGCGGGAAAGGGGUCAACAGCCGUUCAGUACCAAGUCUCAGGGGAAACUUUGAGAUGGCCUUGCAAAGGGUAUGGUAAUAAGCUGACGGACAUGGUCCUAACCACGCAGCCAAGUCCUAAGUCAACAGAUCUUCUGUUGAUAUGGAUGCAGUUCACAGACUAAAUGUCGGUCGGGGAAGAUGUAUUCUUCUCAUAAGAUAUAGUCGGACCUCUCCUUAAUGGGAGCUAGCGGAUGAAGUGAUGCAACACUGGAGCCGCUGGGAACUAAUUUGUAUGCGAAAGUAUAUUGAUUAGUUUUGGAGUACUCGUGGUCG; conditions: 37 °C;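 further: selection with 25 µg/mL kanamycin versus none on LB agar overnight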
Please use 1 whenever self-splicing fitness (ln) is not below -2, and -1 whenever it is.

> print(dat)
                     seq  category
 1  CACAAGCAAUAUUACGUAUC        -1
 2  GUACAGCAAUAUUACGUGCU        -1
 3  UAACAGCAAUAUUACGCCAA         1
 4  UCUGAGCAAUAUUACGCGGG        -1
 5  UGGAAGCAAUAUUACGAAAU        -1
 6  GAGCAGCAAUAUUACGUUAC         1
 7  GAAAAGCAAUAUUACGAUUG         1
 8  CUAUAGCAAUAUUACGAGUG         1
 9  GCAGAGCAAUAUUACGGGGG        -1
10  UGGCAGCAAUAUUACGCUUG         1
11  CCGCAGCAAUAUUACGUAUU        -1
12  ACUUAGCAAUAUUACGGAAA        -1
13  ACUCAGCAAUAUUACGGAAU         1
14  AUAAAGCAAUAUUACGUUGG        -1
15  GCACAGCAAUAUUACGUAGG         1
16  GCGUAGCAAUAUUACGGGAC        -1
17  AUCAAGCAAUAUUACGACCG         1
18  GUUAAGCAAUAUUACGGUAA         1
19  ACUGAGCAAUAUUACGUAAU        -1
20  ACUCAGCAAUAUUACGUGCU        -1
21  UUCAAGCAAUAUUACGACGG         1
22  UCCAAGCAAUAUUACGCGGU         1
23  UUCUAGCAAUAUUACGCUUA         1
24  UACGAGCAAUAUUACGUAUC        -1
25  AAGGAGCAAUAUUACGGCGU         1

---

test: self-splicing fitness, log relative to wild type (ln ratio); higher = more splicing; Tetrahymena group I intron in knt gene, E. coli kanamycin selection, DiMSum; sequences stand for … in CUCUCU…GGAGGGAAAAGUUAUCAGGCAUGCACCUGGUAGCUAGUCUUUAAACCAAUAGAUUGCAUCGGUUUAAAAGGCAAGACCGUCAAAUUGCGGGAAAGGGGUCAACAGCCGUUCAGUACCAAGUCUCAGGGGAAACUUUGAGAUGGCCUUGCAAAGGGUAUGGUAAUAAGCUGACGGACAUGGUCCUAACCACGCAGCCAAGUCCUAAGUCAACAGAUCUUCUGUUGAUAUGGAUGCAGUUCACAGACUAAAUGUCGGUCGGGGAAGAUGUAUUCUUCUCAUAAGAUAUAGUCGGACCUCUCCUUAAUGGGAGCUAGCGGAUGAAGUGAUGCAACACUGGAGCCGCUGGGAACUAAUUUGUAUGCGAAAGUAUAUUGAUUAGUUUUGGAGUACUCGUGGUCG; conditions: 37 °C
Please use Criterion met whenever self-splicing fitness (ln) is not below -1, and Criterion not met whenever it is.

> print(dat)
                    seq           category
1  AAAGAGCAAUAUUACGUUUU  Criterion not met
2  CGAAAGCAAUAUUACGUCCC      Criterion met
3  UGUUAGCAAUAUUACGACCU      Criterion met
4  GAGUAGCAAUAUUACGAUAG  Criterion not met
5  ACAAAGCAAUAUUACGCGCC      Criterion met
6  GUGUAGCAAUAUUACGUUCU      Criterion met
7  UAUAAGCAAUAUUACGUAGA      Criterion met

---

assay: self-splicing fitness, log relative to wild type (ln ratio); higher = more splicing; Tetrahymena group I intron in knt gene, E. coli kanamycin selection, DiMSum; sequences stand for … in CUCUCU…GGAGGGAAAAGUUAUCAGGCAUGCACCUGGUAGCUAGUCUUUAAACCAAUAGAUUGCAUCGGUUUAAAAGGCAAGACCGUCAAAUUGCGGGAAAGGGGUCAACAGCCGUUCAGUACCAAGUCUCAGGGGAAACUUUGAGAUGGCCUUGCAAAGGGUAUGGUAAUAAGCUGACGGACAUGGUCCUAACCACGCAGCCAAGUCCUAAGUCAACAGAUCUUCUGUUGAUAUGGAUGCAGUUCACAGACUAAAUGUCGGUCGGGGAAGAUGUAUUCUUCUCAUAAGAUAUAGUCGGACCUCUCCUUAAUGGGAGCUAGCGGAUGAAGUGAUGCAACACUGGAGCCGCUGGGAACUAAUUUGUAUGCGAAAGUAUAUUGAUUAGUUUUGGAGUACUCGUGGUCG; settings: 37 °C
measured.metric: self-splicing fitness (ln)

> print(dat)
                    seq             measured.metric  result.value
1  CUAAAGCAAUAUUACGGUAC  self-splicing fitness (ln)         -2.35
2  GGACAGCAAUAUUACGAGCG  self-splicing fitness (ln)        0.0554
3  AAGAAGCAAUAUUACGAUUG  self-splicing fitness (ln)         -1.78
4  CCGCAGCAAUAUUACGUCAA  self-splicing fitness (ln)         -3.04

---

Listed below: self-splicing fitness (ln) values for each entry.
assay: self-splicing fitness, log relative to wild type (ln ratio); higher = more splicing; Tetrahymena group I intron in knt gene, E. coli kanamycin selection, DiMSum; sequences stand for … in CUCUCU…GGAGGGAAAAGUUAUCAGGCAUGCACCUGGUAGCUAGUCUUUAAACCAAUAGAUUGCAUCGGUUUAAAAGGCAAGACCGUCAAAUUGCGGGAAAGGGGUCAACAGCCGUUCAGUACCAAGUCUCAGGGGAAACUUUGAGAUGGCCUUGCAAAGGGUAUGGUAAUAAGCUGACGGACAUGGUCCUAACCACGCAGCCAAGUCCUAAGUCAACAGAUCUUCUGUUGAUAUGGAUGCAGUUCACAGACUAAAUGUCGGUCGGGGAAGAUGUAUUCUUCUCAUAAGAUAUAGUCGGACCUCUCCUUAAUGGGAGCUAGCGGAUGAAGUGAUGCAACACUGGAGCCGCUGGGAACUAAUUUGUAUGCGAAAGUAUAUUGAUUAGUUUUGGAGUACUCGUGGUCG; details: 30 °C
measured.metric: self-splicing fitness (ln)

> print(dat)
                     seq  result.value
 1  AUGCAGCAAUAUUACGUGCG        -0.943
 2  GCGAAGCAAUAUUACGGCUG         -1.55
 3  AUAUAGCAAUAUUACGCCCA         -1.31
 4  AAAAAGCAAUAUUACGUACG          -1.1
 5  GACAAGCAAUAUUACGGACU         -1.17
 6  ACAGAGCAAUAUUACGAAGC         -2.69
 7  UGAUAGCAAUAUUACGUUGC         -2.16
 8  ACUCAGCAAUAUUACGUGCU         -2.27
 9  CUACAGCAAUAUUACGCGGG         -2.27
10  GUGGAGCAAUAUUACGGGGC         -3.48
11  CUUUAGCAAUAUUACGGUGG         -1.96
12  GUGGAGCAAUAUUACGCGUC         -2.82
13  CAUCAGCAAUAUUACGUUCG          0.13
14  CCUUAGCAAUAUUACGUAAC         -4.41
15  AAAGAGCAAUAUUACGAGCA         -2.83
16  GGUAAGCAAUAUUACGGGCG        -0.129
17  ACGAAGCAAUAUUACGUACG          -3.8
18  UUCCAGCAAUAUUACGCUAG         -2.89
19  CUAUAGCAAUAUUACGUUCA         -2.87
20  AUGUAGCAAUAUUACGACUC         0.285
21  GCGAAGCAAUAUUACGUCCU       -0.0766
22  UCGAAGCAAUAUUACGAAUU          -3.1
23  AGUCAGCAAUAUUACGUGAG        -0.691
24  ACCAAGCAAUAUUACGUAAA         -2.62
25  AGAAAGCAAUAUUACGUUGU         -4.11
26  CAACAGCAAUAUUACGGUGG         -2.15
27  CCGGAGCAAUAUUACGAUGC         -2.69
28  CAGUAGCAAUAUUACGUACA         -1.46
29  GGUGAGCAAUAUUACGCGCG        -0.933
30  CCACAGCAAUAUUACGGUAU         -3.97
31  AUUAAGCAAUAUUACGGAAG         -3.07
32  UCCGAGCAAUAUUACGCAGG         -3.19
33  AACUAGCAAUAUUACGUGAU         -1.71
34  CCAAAGCAAUAUUACGACCU         -3.31
35  UGAAAGCAAUAUUACGCAGU         -3.25
36  GUGGAGCAAUAUUACGUGCG         -2.23
37  UUUUAGCAAUAUUACGCACU        -0.447
38  UACGAGCAAUAUUACGCUCU         -1.85
39  UGCCAGCAAUAUUACGGCAG         -2.25
40  CAGAAGCAAUAUUACGAGUU         -3.32
41  AUAAAGCAAUAUUACGUCGA        -0.992
42  CGACAGCAAUAUUACGACCA        -0.898
43  CGCCAGCAAUAUUACGGGGC            -4
44  AAAAAGCAAUAUUACGGUAG         -3.38
45  GUGUAGCAAUAUUACGUUGA         -1.73
46  GAGUAGCAAUAUUACGACGG         -2.74
47  AUAGAGCAAUAUUACGAGGU         -3.58
48  AAGGAGCAAUAUUACGAGGC         -2.89
49  CGGCAGCAAUAUUACGAGAU         -1.99
50  GUUUAGCAAUAUUACGCUAA         -3.38
51  CACCAGCAAUAUUACGGCCC          -1.8
52  ACGCAGCAAUAUUACGCUGC         -3.38
53  UUAAAGCAAUAUUACGUUAA        -0.426
54  CUCCAGCAAUAUUACGGAUU         -2.59
55  AGGCAGCAAUAUUACGCACC        -0.268
56  CGACAGCAAUAUUACGAUUA         -1.99
